Origin of the recorded values: patent US20240067747A1

# assayed-system: T1, Lysozyme from chicken egg (Sigma, L3790) (chicken, UniProt P00698 19-147)
# T1 construct: Non-target molecule, amine-coupled to a CM5 chip
# T1 sequence (P00698 19-147 limits assumed): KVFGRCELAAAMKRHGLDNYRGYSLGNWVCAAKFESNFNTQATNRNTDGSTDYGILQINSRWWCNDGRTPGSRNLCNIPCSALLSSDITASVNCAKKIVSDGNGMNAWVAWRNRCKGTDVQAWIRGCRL
# measurement-description: SPR, Biacore 8K, lysozyme immobilized on CM5, antibody at 1000 nM; buffer alone 16.9 RU
# non-specific binding amount (RU) per record follows
// note: answer is a bare numeric in RU

Some solved cases for reference:
binder: 900726 (humanized anti-CD73 antigen-binding protein) (antibody, V domains shown) VH: QVQLVQSGAEVKKPGASVKLSCKASGYTFTSYWIHWVRQAPGQGLEWIGMIHPNSGSTYYNEKFKGRATLTVDKSTSTAYMELSSLRSEDTAVYYCARYYGSDYEWYFDVWGQGTTVTVSS VL: DIQMTQSPSSLSASVGDRVTITCKASQNVRTAVVWYQQKPGKAPKALIYLASNRHTGVPDRFSGSGSGTDFTLTISSLQPEDFATYYCLQHWNYPYTFGQGTKLEIK
assay-endpoint: non-specific binding amount (RU)
units-text: RU
experimental-result: 17.7
--
binder: 900725 (humanized anti-CD73 antigen-binding protein) (antibody, V domains shown) VH: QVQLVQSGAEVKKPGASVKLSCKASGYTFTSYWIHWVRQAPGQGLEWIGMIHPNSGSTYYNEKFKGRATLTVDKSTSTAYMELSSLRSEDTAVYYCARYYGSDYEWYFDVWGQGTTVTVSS VL: DIQMTQSPSSMSASVGDRVTITCKASQNVRTAVVWYQQKPGKAPKALIYLASNRHTGVPDRFSGSGSGTDFTLTISSLQPEDFATYFCLQHWNYPYTFGQGTKLEIK
assay-endpoint: non-specific binding amount (RU)
units-text: RU
experimental-result: 20.3

Now examine the next entry.
Summary for this binder, 900727 (humanized anti-CD73 antigen-binding protein) (antibody, V domains shown) VH: QVQLVQSGAEVKKPGASVKVSCKASGYTFTSYWIHWVRQAPGQGLEWIGMIHPNSGSTYYAQKFQGRVTITVDKSTSTAYMELSSLRSEDTAVYYCARYYGSDYEWYFDVWGQGTTVTVSS VL: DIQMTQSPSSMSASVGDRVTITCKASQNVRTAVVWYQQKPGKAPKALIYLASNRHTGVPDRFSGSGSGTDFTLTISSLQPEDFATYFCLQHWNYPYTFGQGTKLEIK : non-specific binding amount (RU) is 17.6
